assay: Toxicity liver stage against HepG2, at 10uM; assay type: cell-based; set-up: test concentration 10 uM, cell line HepG2-A16-CD81EGFP; conditions: human, HepG2-A16-CD81EGFP cells; read-out: INHIBITION
assay endpoint: cytotoxicity at 10 µM (%)
One number for each entry, in %.

Use these answered entries as a reference point.
The compound identified as CC(CCN(C)C)NC(=O)c1cccc(C(F)(F)F)c1F (configuration not stated) registered its cytotoxicity at 10 µM at -52.6

The compound identified as CC(C)N1CCCC1c1cc(CCO)[nH]n1 (configuration not stated) registered its cytotoxicity at 10 µM at 0.895

The compound identified as "CCn1c(N)nc2cc(C(=O)NCCCc3ccccn3)cnc21" registered its cytotoxicity at 10 µM at -7.38

Please supply cytotoxicity at 10 µM for each of the following items, keeping them in order.
1. CCOC[C@@H]1CCC[C@]12CN(S(=O)(=O)c1cn(C)cn1)CCO2
2. CCC(C(=O)NCC1=CCN(C)CC1)c1ccccc1 (configuration not stated)
3. O=C(CC1CC1)NCc1cn2c(n1)CN(Cc1cccc(F)c1)CC2
4. Cc1nn(C)c(N(C)C)c1CNC1CCc2c(F)cccc21 (configuration not stated)
5. CCOC(=O)c1s/c(=N\C(=O)COc2cnc(C)cc2O)[nH]c1C

[out]
5.7
-7.66
-85.8
-5.87
5.56

Please supply cytotoxicity at 10 µM for each of the following items, keeping them in order.
1. CCNC(=O)NC(=O)CNC(C)(C)c1ccc2c(c1)OCO2
2. O=C(c1cc2c(s1)CCCC2)N1CCc2nc(C3CCCN3)ncc2C1 (configuration not stated)
3. CSCCC(NC(N)=O)C(=O)Nc1ccc(-n2cccn2)nc1 (configuration not stated)

[out]
-8.58
-3.04
4.78

The compound identified as CCCc1cc(N2CCC(NC3CCC(O)CC3)CC2)nc(C)n1 (configuration not stated) registered its cytotoxicity at 10 µM at -4.35
